Hi there, I'd appreciate the recorded drug sensitivity score for every entry that follows.
Test system: DERL-7 (IL-2 2.5 ng/mL)
Assay: drug sensitivity score (DSS) (DSS units); higher = more sensitive; extreme values may be limits of the assay
Details: 72 h

The reported drug sensitivity score of the molecule Cc1c(C(=O)Nc2ccc(N3C[C@@H](C)O[C@@H](C)C3)nc2)cccc1-c1ccc(OC(F)(F)F)cc1 [Sonidegib] (max concentration tested 10000 nM) was 0

# drug sensitivity score (molecule: Cc1nc(C(=O)NCC(=O)O)c(O)c2ccc(Oc3ccccc3)cc12 [FG-4592] (max concentration tested 10000 nM) ) is 0

Record CCCCC/C=C/C=C1/C(=O)C=C[C@@H]1C/C=C\CCCC(=O)O [15D-PGJ2] (max concentration tested 3000 nM) , field drug sensitivity score: 0.17
